Entries annotated with measured EC50
# System: EVSA-T (human breast carcinoma)
# protocol-notes: Anti-proliferative activity, Alamar Blue assay, EVSA-T
# Type: cell-based
# details: Homo sapiens, EVSA-T, read-out: EC50 in EVSA-T cell line assays
Where a name gives a salt, the structure may show the parent alone.

Completed entries (count: 4):
IN: Entry C[C@@H]1CN(CC(=O)N2CC(C)(C)c3cnc(Cc4ccc(F)cc4)cc32)[C@@H](CN2Cc3ncccc3C2=O)CN1 [Example 20, dihydrochloride] : reported EC50 = ?
OUT: < 1 µM

IN: Which value of EC50 has been reported for C[C@@H]1CN(CC(=O)N2CC(C)(C)c3ncc(Cc4ccc(F)cc4F)cc32)[C@@H](CN2CC(C)(C)CC2=O)CN1 [Example 30, dihydrochloride] in the records?
OUT: < 1 µM

IN: I would be grateful if you could share the reported EC50 for C[C@@H]1CN(CC(=O)N2CC(C)(C)c3ncc(Cc4ccc(F)cc4)cc32)[C@@H](CN2CCCCC2=O)CN1 [Example 21, dihydrochloride] .
OUT: < 1 µM

IN: Entry under review: CCC1CN(C[C@H]2CN[C@H](C)CN2CC(=O)N2CC(C)(C)c3ncc([C@@H](O)c4ccc(F)cc4)cc32)C(=O)CO1 (single isomer, unassigned) [Example 110, dihydrochloride] . Reported EC50?
OUT: < 1 µM

Further cases:
IN: EC50 for C[C@@H]1CN(CC(=O)N2CC(C)(C)c3nnc(Cc4ccc(F)cc4F)cc32)[C@@H](CN2Cc3ccccc3C2=O)CN1 [Example 79, dihydrochloride] ?
OUT: < 1 µM

IN: Any idea what its EC50 is? The molecule is COC[C@@H]1CN(C[C@H]2CN[C@H](C)CN2CC(=O)N2CC(C)(C)c3ncc(Cc4ccc(F)cc4)cc32)C(=O)CO1 [Example 102, dihydrochloride]
OUT: < 1 µM

---

# Test system: EVSA-T (human breast carcinoma)
# protocol-notes: Anti-proliferative activity, Alamar Blue assay, EVSA-T
# Assay type: cell-based
# details: Homo sapiens, EVSA-T, 72 h, EVSA-T cell line, 72 hours, Alamar Blue; read-out: EVSA-T prolif
Where a name gives a salt, the structure may show the parent alone.
Here the recorded pEC50 is given for each entry.
Friendly reminder that pEC50 comes from taking -log10 of the concentration in mol/L.

IN: What does the record list as pEC50 for C[C@H]1CC(=O)N(C[C@H]2CN[C@H](C)CN2CC(=O)N2CC(C)(C)c3nnc(Cc4ccc(F)cc4F)cc32)C1 [Example 46, dihydrochloride] ?
OUT: 8.64

IN: I'd like to know its pEC50. The compound in question is C[C@H]1CC(=O)N(C[C@H]2CN[C@H](C)CN2CC(=O)N2CC(C)(C)c3ncc(Cc4ccc(F)cc4)cc32)C1 [Example 17, dihydrochloride]
OUT: 8.51

IN: Dear colleague, I am looking for the recorded pEC50 of the following compound: CCC1CC(=O)N(C[C@H]2CN[C@H](C)CN2CC(=O)N2CC(C)(C)c3ncc(Cc4ccc(F)cc4)cc32)C1 (single isomer, unassigned) [Example 82, dihydrochloride]
OUT: 8.82

IN: Query (compound): CCCC(F)(F)c1cc2c(cn1)C(C)(C)CN2C(=O)CN1C[C@@H](C)NC[C@@H]1CN1C[C@@H](C)CC1=O [Example 75, dihydrochloride] ; field requested: pEC50
OUT: 7.85

# context switch: different compound, same pEC50
IN: I have this compound here, C[C@@H]1CN(CC(=O)N2CC(C)(C)c3cnc(Cc4ccc(F)cc4F)cc32)[C@@H](CN2C[C@@H](C)OCC2=O)CN1 [Example 69, dihydrochloride] , and I need its recorded pEC50.
OUT: 8.59

---

# Test system: EVSA-T (human breast carcinoma)
# protocol-notes: Anti-proliferative activity, Alamar Blue assay, EVSA-T
# Assay type: cell-based
# details: Homo sapiens, EVSA-T, 72 h, EVSA-T cell line, 72 hours, Alamar Blue; read-out: EVSA-T prolif
Counter-ions that a name gives are not always drawn.
reported-metric: pEC50
Note: pEC50 values are expressed as the negative base-10 logarithm of concentration in M.

IN: Query the reported pEC50 for EVSA-T (human breast carcinoma); item: C[C@@H]1CN(CC(=O)N2CC(C)(C)c3cnc(Cc4ccc(F)cc4F)cc32)[C@@H](CN2C[C@H](C)N(C)CC2=O)CN1 [Example 81, dihydrochloride]
OUT: 8.55

IN: Can you look up pEC50 on EVSA-T (human breast carcinoma) for C[C@@H]1CN(CC(=O)N2CC(C)(C)c3ncc(Cc4ccc(F)cc4F)cc32)[C@@H](CN2Cc3cc(O)ccc3C2=O)CN1 [Example 105, dihydrochloride] ?
OUT: 8.19

IN: Form field - read-out: pEC50; system: EVSA-T (human breast carcinoma); submitted item: CCCC(F)(F)c1cc2c(nn1)C(C)(C)CN2C(=O)CN1C[C@@H](C)NC[C@@H]1CN1Cc2ccccc2C1=O [Example 59, dihydrochloride]
OUT: 8.80

IN: Value wanted: pEC50 (EVSA-T (human breast carcinoma)) of entry C[C@@H]1CN(CC(=O)N2CC(C)(C)c3ncc(Cc4ccc(F)cc4F)cc32)[C@@H](CN2Cc3cc(C#N)ccc3C2=O)CN1 [Example 106, dihydrochloride]
OUT: 8.68

IN: So what pEC50 did "CC1=C(C)C(=O)N(C[C@H]2CN[C@H](C)CN2CC(=O)N2CC(C)(C)c3nnc(Cc4ccc(F)cc4)cc32)C1" get with EVSA-T (human breast carcinoma)?
OUT: 8.31

IN: What is its pEC50 for EVSA-T (human breast carcinoma)? Entry: C[C@@H]1CN(CC(=O)N2CC(C)(C)c3ncc(Cc4ccc(F)cc4)cc32)[C@@H](CN2CC(C)(C)OCC2=O)CN1 [Example 97, dihydrochloride]
OUT: 8.05

IN: Field: pEC50 (EVSA-T (human breast carcinoma)). Entry: CC1CC(=O)N(C[C@H]2CN[C@H](C)CN2CC(=O)N2CC(C)(C)c3ncc(Cc4ccc(F)cc4)cc32)C1 (stereo partly shown) [Example 6, dihydrochloride]
OUT: 8.96

IN: Under EVSA-T (human breast carcinoma): pEC50 value of COC[C@@H]1CN(C[C@H]2CN[C@H](C)CN2CC(=O)N2CC(C)(C)c3nnc(Cc4ccc(F)cc4F)cc32)C(=O)CO1 [Example 101, dihydrochloride] ?
OUT: 7.60

IN: Test system EVSA-T (human breast carcinoma); read-out pEC50; what value for C[C@@H]1CN(CC(=O)N2CC(C)(C)c3ncc(Cc4ccc(F)cc4)cc32)[C@@H](CN2Cc3ccncc3C2=O)CN1 [Example 19, dihydrochloride] ?
OUT: 8.62

IN: Enter reported pEC50 observed with EVSA-T (human breast carcinoma) for COc1ccc2c(c1)CN(C[C@H]1CN[C@H](C)CN1CC(=O)N1CC(C)(C)c3cnc(Cc4ccc(F)cc4)cc31)C2=O [Example 92, dihydrochloride]
OUT: 9.59

---
IN: Write down the reported pEC50 of "CC1=C(C)C(=O)N(C[C@H]2CN[C@H](C)CN2CC(=O)N2CC(C)(C)c3nnc(Cc4ccc(F)cc4F)cc32)C1" , test system: EVSA-T (human breast carcinoma).
OUT: 8.92

IN: Param readout = pEC50; param system = EVSA-T (human breast carcinoma); param query = C[C@@H]1CN(CC(=O)N2CC(C)(C)c3ncc(Cc4ccc(F)cc4F)cc32)[C@@H](CN2C[C@H](C)OCC2=O)CN1 (single isomer, unassigned) [Example 23, dihydrochloride] ; response: value
OUT: 8.55

IN: Give pEC50 (EVSA-T (human breast carcinoma)) of the following compound: CCCC(F)(F)c1cc2c(nn1)C(C)(C)CN2C(=O)CN1C[C@@H](C)NC[C@@H]1CN1Cc2ccc(F)cc2C1=O [Example 99, dihydrochloride]
OUT: 8.18

IN: Record lookup: for EVSA-T (human breast carcinoma), what pEC50 belongs to COC[C@@H]1CN(C[C@H]2CN[C@H](C)CN2CC(=O)N2CC(C)(C)c3ncc(Cc4ccc(F)cc4)cc32)C(=O)CO1 [Example 102, dihydrochloride] ?
OUT: 8.16

IN: Requested read-out pEC50, target or system EVSA-T (human breast carcinoma), entry C[C@H]1CC(=O)N(C[C@H]2CN[C@H](C)CN2CC(=O)N2CC(C)(C)c3ncc(Cc4ccc(F)cc4F)cc32)C1 [Example 73, dihydrochloride]
OUT: 8.60

IN: Requested read-out pEC50, target or system EVSA-T (human breast carcinoma), entry C[C@@H]1CN(CC(=O)N2CC(C)(C)c3ncc(Cc4ccc(F)cc4)cc32)[C@@H](CN2C(=O)CO[C@@H](C)[C@H]2C)CN1 [Example 25, dihydrochloride]
OUT: 8.72

---

# tgt: BIR3 domain of human XIAP (residues 252-350) (Homo sapiens)
# Construct: BIR3 domain of human XIAP (residues 252-350); His-tag (cleaved yes); made in house; host or cells: Escherichia coli
# Sequence (P98170 252-350): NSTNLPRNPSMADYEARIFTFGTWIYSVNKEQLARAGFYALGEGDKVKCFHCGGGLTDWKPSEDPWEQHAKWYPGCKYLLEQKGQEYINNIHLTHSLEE
# protocol-notes: XIAP in vitro competitive displacement binding assay (fluorescence polarization)
# details: 1 h, percent inhibition (PI) at 0.04 μM; read-out: Xiap IC50 or PI μM
Where a name gives a salt, the structure may show the parent alone.
reported-metric: inhibition at 0.04 µM (%)
Provide the reading as a plain figure in %.

Would you please look over these solved cases?
IN: Look up inhibition at 0.04 µM for this molecule: C[C@@H]1CN(CC(=O)N2CC(C)(C)c3cnc(Cc4ccc(F)cc4F)cc32)[C@@H](CN2C[C@@H](C)OCC2=O)CN1 [Example 69, dihydrochloride]
OUT: 68

IN: Reported inhibition at 0.04 µM for CCCC(F)(F)c1cc2c(nn1)C(C)(C)CN2C(=O)CN1C[C@@H](C)NC[C@@H]1CN1Cc2ccccc2C1=O [Example 59, dihydrochloride] : what is it?
OUT: 68

IN: Using the record for C[C@@H]1CN(CC(=O)N2CC(C)(C)c3ncc(Cc4ccc(F)cc4F)cc32)[C@@H](CN2CC(C)(C)CC2=O)CN1 [Example 30, dihydrochloride] , report its inhibition at 0.04 µM.
OUT: 70

IN: Tell me the measured inhibition at 0.04 µM of C[C@@H]1CN(CC(=O)N2CC(C)(C)c3cnc(Cc4ccc(F)cc4F)cc32)[C@@H](CN2CC(C)(C)CC2=O)CN1 [Example 32, dihydrochloride] , please.
OUT: 71

Next:
IN: Consider the molecule shown here: C[C@@H]1CN(CC(=O)N2CC(C)(C)c3ncc(Cc4ccc(F)cc4F)cc32)[C@@H](CN2Cc3c(O)cccc3C2=O)CN1 [Example 118, dihydrochloride] What is its recorded inhibition at 0.04 µM?
OUT: 72
